Where these numbers come from: a melting point compilation (Tetko et al.)

Measured Parameter: melting point

Illustrative cases are given below, each with its answer.
c1ccc(-c2cn[nH]c2)cc1    229 to 231 °C
CS(=O)(=O)Nc1ccc(N)cc1Br    146 to 148 °C

*Q* Query (compound): CCCc1c(C(=O)O)[nH]c(C)c1C(=O)OC ; field requested: melting point
*A* 215 to 217 °C

*Q* Query (compound): N#CCC(=O)NCCc1ccccc1 ; field requested: melting point
*A* 91 to 93 °C

----------
Below, each entry is listed with its recorded melting point.

Illustrative cases are given below, each with its answer.
COCCN1C(=O)c2ccc(C(=O)O)cc2S1(=O)=O    151 to 153 °C
O=C(O)C1CCCN1C(=O)NC1CCCCC1 (configuration not stated)    175 to 177 °C
COc1ccc2cc(C(N)=S)ccc2c1    188 to 190 °C
NNc1ccnc2ccccc12    155 to 157 °C
CCCCCCCCCCCCSc1nc2sc3c(c2c(=O)n1-c1ccccc1)CCCC3    84 to 86 °C

*Q* Query (compound): NC(=S)CC1CC1 ; field requested: melting point
*A* 68 to 70 °C

*Q* Query (compound): O=C(NCCCl)C1CCCC1 ; field requested: melting point
*A* 72 to 74 °C

*Q* Query (compound): COc1cc(C#N)ccc1OCC1CCCO1 (configuration not stated) ; field requested: melting point
*A* 86 to 88 °C

*Q* Query (compound): Cc1nc(-c2ccccc2Br)sc1C(C)O (configuration not stated) ; field requested: melting point
*A* 79 to 81 °C

*Q* Query (compound): CN(C)C(=O)c1cc(N)ccc1Cl ; field requested: melting point
*A* 158 to 160 °C
